system: Tov112D; assay: Primary qHTS to identify gynecologic anti-cancer compounds using libraries of approved drugs and bioactive compounds (AID 1345084); conditions: Gynecologic cancer cell panel viability, ATPlite luminescence, 48 h; series mostly up to 57.5 µM; also: nearly all actives have a fitted effect of over 55% in size
Records with an inconclusive call do not appear. Active and inactive are the calls of the source. Calls follow the shape of the dose curve; as a rule, active = well fitted cell-killing curve with a large enough effect; inconclusive = small, poorly fitted or top-dose-only effect, or effect the other way; inactive = flat fitted curve, though single readings scatter.
// one of 1.0 for active, 0.0 for inactive, no free text

[
  {
    "molecule": "C[C@H]1O[C@@H](O[C@H]2CC[C@]3(CO)C4CC[C@]5(C)[C@@H](C6=CC(=O)OC6)CC[C@]5(O)[C@@H]4CC[C@H]3C2)[C@H](O)[C@H](O)[C@@H]1O[C@@H]1O[C@H](CO)[C@@H](O)[C@H](O)[C@H]1O (stereo not given in full)",
    "experimental.system": "Tov112D",
    "label": 1.0
  },
  {
    "molecule": "COc1ccc(CN(C(=O)[C@@H](N)Cc2c(C)cc(C(N)=O)cc2C)[C@@H](C)c2ncc(-c3ccccc3)[nH]2)cc1C(=O)O",
    "experimental.system": "Tov112D",
    "label": 0.0
  },
  {
    "molecule": "COC1(C[S@@](=O)c2ccccc2)CCN(CCc2c[nH]c3ccc(F)cc23)CC1",
    "experimental.system": "Tov112D",
    "label": 0.0
  },
  {
    "molecule": "N#Cc1ccc([C@H]2CCCC[C@H]2O)cc1C(F)(F)F",
    "experimental.system": "Tov112D",
    "label": 0.0
  }
]

Attention now shifts to the item below.
input: Per the assay record, what outcome was assigned to COc1cccc(NCC(F)Cn2c3ccc(Br)cc3c3cc(Br)ccc32)c1 (stereo not given) ?
output: 1.0
